assay: Aqueous solubility determination; type: physicochemical; conditions: 0.01 M HCl, pH 2
READOUT: solubility at 4 h

Entry Cc1cc(CO)cc(C)c1Oc1cc(Nc2ccc(C#N)cc2)c(N)cc1CO [13e] , solubility at 4 h reported as 0.0209 to 0.0447 mg/mL

* * *

assay: In vitro cytotoxicity in TZM-bl cells; format: cell-based; conditions: human
READOUT: CC50 at 4 days (µM)
Could you give me the number in µM? Just the number is fine.

Entry Cc1cc(/C=C/C#N)cc(C)c1Nc1ccnc(Nc2ccc(C#N)cc2)n1 [compound 2, rilpivirine, reference compound] , CC50 at 4 days reported as 19.4

* * *

assay: Human liver microsome stability assay; type: in vitro ADME; settings: human, human liver microsomes, pH 7.4
READOUT: microsomal CLint at 1 μM (µL/min/mg)
Could you give me the number in µL/min/mg? Just the number is fine.

Entry Cc1cc(/C=C/C#N)cc(C)c1Oc1cc(Nc2ccc(C#N)cc2)c(N)cc1C(F)(F)F [14a] , microsomal CLint at 1 μM reported as 150

Entry Cc1cc(CCC#N)cc(C)c1Oc1cc(Nc2ccc(C#N)cc2)c(N)cc1CO [15h] , microsomal CLint at 1 μM reported as 330

Entry Cc1cc(CCC#N)cc(C)c1Oc1cc(Nc2ccc(C#N)cc2)c(N)cc1C(F)(F)F [15a] , microsomal CLint at 1 μM reported as 120

Entry CNC(=O)c1cc(N)c(Nc2ccc(C#N)cc2)cc1Oc1c(C)cc(/C=C/C#N)cc1C [14f] , microsomal CLint at 1 μM reported as 150

Entry Cc1cc(CCC#N)cc(C)c1Oc1cc(Nc2ccc(C#N)cc2)c(N)cc1C(N)=O [15e] , microsomal CLint at 1 μM reported as 160

Entry COC(=O)c1cc(N)c(Nc2ccc(C#N)cc2)cc1Oc1c(C)cc(CCC#N)cc1C [15c] , microsomal CLint at 1 μM reported as 40

Entry COC(=O)c1cc(N)c(Nc2ccc(C#N)cc2)cc1Oc1c(C)cc(/C=C/C#N)cc1C [14c] , microsomal CLint at 1 μM reported as 20

Entry CNC(=O)c1cc(N)c(Nc2ccc(C#N)cc2)cc1Oc1c(C)cc(CCC#N)cc1C [15f] , microsomal CLint at 1 μM reported as 120

* * *

tested on: HIV-1 NL4-3 (wild-type); assay: microbe, parasite or virus in culture; format: cell-based; details: Human immunodeficiency virus 1, NL43, TZM-bl, read-out: EC50 NL4-3
Each entry below carries its reported pEC50.
// pEC50 here means minus log10 of the molar concentration (mol/L)

COMPOUND	pEC50
Cc1cc(/C=C/C#N)cc(C)c1Oc1cc(Nc2ccc(C#N)cc2)c(N)cc1CO [14h]	9.28

Consider the record given below.
Entry Cc1cc(/C=C/C#N)cc(C)c1Oc1cc(Nc2ccc(C#N)cc2)c(N)cc1C(N)=O [14e] , pEC50 reported as 9.06
